# system-tested: T1, human BDCA2 ectodomain (Homo sapiens, UniProt Q8WTT0)
# T1 construct: huBDCA2 ectodomain: residues 257-425 above (underlined); murine IgG2a Fc (with G4S linker) (N, cleaved yes); made in house
# T1 sequence (Q8WTT0 45-213): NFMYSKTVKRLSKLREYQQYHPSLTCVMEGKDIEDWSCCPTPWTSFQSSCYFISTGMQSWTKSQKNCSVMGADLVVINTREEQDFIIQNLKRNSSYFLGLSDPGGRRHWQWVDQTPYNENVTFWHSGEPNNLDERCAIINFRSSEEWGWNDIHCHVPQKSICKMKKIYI
# protocol-summary: Octet binding of mAbs on anti-human Fc tips to monomeric huBDCA2
# particulars: Example 5, conditioned medium, hu24F4 variants

molecule	kdis, s⁻¹
H6/L0: hu24F4 variant, heavy chain version H6 (SEQ ID NO: 52), light chain version L0 (SEQ ID NO: 54) (antibody, V domains shown) VH: DVQLVESGGGLVKPGGSLRLSCAASGFTFSTYTMSWVRQAPGKGLEWVATISGGNNYGYSYPDSVKGRFTISRDNAKNSLYLQMNSLRAEDTAVYYCTRDIYYNYGAWFAYWGQGTLVTVSS VL: AIQLTQSPSSLSASVGDRVTITCKASQSVDYDGDSYMNWYQQKPGKAPKLLIYAASTLESGVPSRFSGSGSGTDFTLTISSLQPEDFATYYCQQSNEDPRTFGQGTKVEIK	0.00137
